Could you please report measured Ratio IC50 for the items listed next?
Species: Homo sapiens
Experiment: Selectivity ratio of IC50 for AKR1C1 to AKR1C3
One number for each entry.

O=C(Nc1ccc(Br)cc1C(=O)O)c1cccc(O)c1
286
O=C(Nc1ccc(Cl)cc1C(=O)O)c1cccc(O)c1
164

Now look at this one.
Lookup: State its Ratio IC50 for this compound: COc1cc(NC(=O)c2cccc(O)c2)c(C(=O)O)cc1OC
Found: 30

###

Target: Aldo-keto reductase family 1 member C1 (Homo sapiens)
Assay: Inhibition of recombinant AKR1C1 using 1-acenaphthenol as substrate at 10 uM by spectrophotometry
The source made the active and inactive calls. The rule behind the calls is not given here.
ASSAY_ENDPOINT: inhibition

Some entries whose results are on file:
O=C(Nc1ccc(O)cc1C(=O)O)c1cccc([N+](=O)[O-])c1
inactive
CCCCOc1cc(C(=O)Nc2ccccc2C(=O)O)ccc1[N+](=O)[O-]
70.8%
O=C(Nc1ccc(Br)cc1C(=O)O)c1cccc(O)c1
21.6%
O=C(Nc1ccc(Cl)cc1C(=O)O)c1cccc([N+](=O)[O-])c1
inactive
O=C(Nc1ccc(Br)cc1C(=O)O)c1ccc(F)c([N+](=O)[O-])c1
53.2%

Can you give me inhibition for all of these, one by one?
1. O=C(Nc1ccc([N+](=O)[O-])cc1C(=O)O)c1cccc(O)c1
2. O=C(Nc1ccc(Cl)cc1C(=O)O)c1cccc(O)c1
3. COc1cc(NC(=O)c2cccc(O)c2)c(C(=O)O)cc1OC
4. COc1cc(NC(=O)c2cccc([N+](=O)[O-])c2)c(C(=O)O)cc1OC

Found:
["11.8%", "17.4%", "11.8%", "22.2%"]

// batch mode: one inhibition value per listed entry
1. Nc1cccc(C(=O)Nc2ccc(O)cc2C(=O)O)c1
2. Nc1cccc(C(=O)Nc2ccccc2C(=O)O)c1
3. COc1cc(NC(=O)c2cccc(N)c2)c(C(=O)O)cc1OC
4. Cc1cc(Cl)cc(C(=O)O)c1NC(=O)c1cccc([N+](=O)[O-])c1
5. O=C(Nc1ccccc1C(=O)O)c1cccc(O)c1

Found:
["9.7%", "8%", "18%", "inactive", "inactive"]

// for each molecule in input: emit inhibition
1. CCCCOc1cccc(C(=O)Nc2ccc(Br)cc2C(=O)O)c1
2. CCOc1cccc(C(=O)Nc2ccc(Br)cc2C(=O)O)c1

Found:
["65.9%", "31.9%"]

Origin of the recorded values: ChEMBL document CHEMBL2069201
